FYI, the data here is from PubChem BioAssay (Tox21).

measurement.description: qHTS assay to identify small molecule antagonists of the peroxisome proliferator-activated receptor gamma (PPARg) signaling pathway - cell viability counter screen (AID 743194); note: nearly all actives have a fitted effect of over 55% in size
protocol.conditions: PPARg-bla HEK293H viability, CellTiter-Glo luminescence, 17 h; co-treated with 50 nM rosiglitazone unless noted; series mostly up to 62.6 µM
Inconclusive results are not listed. Active and inactive are the calls of the source. Calls come from the whole dose curve; as a rule, active = well fitted cell-killing curve with a large enough effect in the repeat runs; inconclusive = weak or mixed curves, or effect the other way; inactive = no such curve, though single readings can be large or run the other way.
measured.endpoint: outcome

CCCn1cc[n+](C)c1 = inactive
CC[N+]1(C)CCCC1 = inactive
Oc1ccccc1-c1ccccc1 = inactive
O=C(O)C(Cl)(Cl)Cl = inactive
CCC(=O)C(CC(C)N(C)C)(c1ccccc1)c1ccccc1 (stereo not given) = inactive
C=CCOC(Cn1ccnc1)c1ccc(Cl)cc1Cl (stereo not given) = inactive
C[N+](C)(C)Cc1ccccc1 = inactive
CNC = inactive
C1CCC(NC2CCCCC2)CC1 = inactive

Query compound follows.
Incoming: Which outcome value belongs to "O=c1[nH]c(=O)n(Cl)c(=O)n1Cl" ?
Outgoing: inactive
